- Study target: purified recombinant mouse ENPP1 (Mus musculus, UniProt P06802)
- Sequence (P06802 whole entry): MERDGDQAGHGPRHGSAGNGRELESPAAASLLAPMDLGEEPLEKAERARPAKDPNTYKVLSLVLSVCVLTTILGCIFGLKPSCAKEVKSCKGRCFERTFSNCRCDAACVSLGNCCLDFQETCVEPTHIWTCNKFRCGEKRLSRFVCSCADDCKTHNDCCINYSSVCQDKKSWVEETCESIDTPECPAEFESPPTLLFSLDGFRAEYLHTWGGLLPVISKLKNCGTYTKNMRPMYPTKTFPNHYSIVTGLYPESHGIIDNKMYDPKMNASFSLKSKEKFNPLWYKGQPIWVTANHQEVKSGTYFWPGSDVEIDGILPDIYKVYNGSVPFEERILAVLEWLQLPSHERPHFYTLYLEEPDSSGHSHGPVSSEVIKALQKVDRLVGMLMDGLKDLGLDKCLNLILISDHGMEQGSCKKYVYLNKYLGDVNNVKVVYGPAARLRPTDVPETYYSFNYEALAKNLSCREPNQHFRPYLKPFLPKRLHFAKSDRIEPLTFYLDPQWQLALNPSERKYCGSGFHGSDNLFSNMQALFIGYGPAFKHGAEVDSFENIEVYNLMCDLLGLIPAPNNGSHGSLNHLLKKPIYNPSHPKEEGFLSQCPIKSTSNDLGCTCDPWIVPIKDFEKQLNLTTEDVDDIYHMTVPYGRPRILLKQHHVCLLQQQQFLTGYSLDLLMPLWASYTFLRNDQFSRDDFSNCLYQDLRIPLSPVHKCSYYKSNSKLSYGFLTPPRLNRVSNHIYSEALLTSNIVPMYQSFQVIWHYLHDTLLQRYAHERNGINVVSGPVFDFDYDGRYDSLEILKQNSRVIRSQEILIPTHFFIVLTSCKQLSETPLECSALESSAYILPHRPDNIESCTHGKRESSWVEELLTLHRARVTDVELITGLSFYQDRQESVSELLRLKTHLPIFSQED
- Test name: ENPP1 activity assay using TMP-pNP as a substrate
- Assay type: biochemical
- Condition summary: TMP-pNP 2 μM, mouse ENPP1 0.5 nM, pH 7.5, room temperature
Value kind: IC50

Illustrative cases are given below, each with its answer.
>  <Molecule>
COc1cc2ncnc(N3CCC(CCP(O)(O)=S)CC3)c2cc1OC [Compound 83]

>  <Measured result>
0.05 to 0.5 µM

$$$$
>  <Molecule>
O=P(O)(O)CCC1CCN(c2ncnc3cccc(F)c23)CC1 [Compound 70]

>  <Measured result>
0.5 to 5 µM

$$$$
>  <Molecule>
COc1cc2ncnc(N3CCN(C(=O)CP(=O)(O)O)CC3)c2cc1OC [Compound 75]

>  <Measured result>
0.05 to 0.5 µM

$$$$
>  <Molecule>
COc1ccc2ncnc(N3CCC(CCP(=O)(O)O)CC3)c2c1 [Compound 19]

>  <Measured result>
0.005 to 0.05 µM

$$$$
>  <Molecule>
COc1ccc2c(N3CCC(CCP(=O)(O)O)CC3)nc(/C=C/c3cccnc3)nc2c1 [Compound 18]

>  <Measured result>
< 0.005 µM

$$$$

Query: GET /values?readout=IC50&item= COc1cc2ncnc(N3CCC(COP(O)(O)=S)CC3)c2cc1OC [Compound 67]
Reply: 0.005 to 0.05 µM

Query: Sample CNC(=O)NCC1CCN(c2ncnc3cc(OC)c(OC)cc23)CC1 [Compound 73] — what was its IC50?
Reply: > 5 µM

Query: Given the entry Cc1nccn1-c1cc(N2CCC(CCP(=O)(O)O)CC2)ncn1 [Compound 93] , report its measured IC50.
Reply: 0.05 to 0.5 µM

Query: Can you look up the measured IC50 of O=P(O)(O)CCC1CCN(c2ncnc3cc4c(cc23)OCCO4)CC1 [Compound 13] for me?
Reply: 0.5 to 5 µM

Query: Fill in: IC50 of Nc1ccc2c(N3CCC(CCP(=O)(O)O)CC3)ncnc2c1 [Compound 30] is ___
Reply: 0.05 to 0.5 µM

Query: Any idea what IC50 was measured for O=P(O)(O)CCC1CCN(c2ncnc3ccc(O)cc23)CC1 [Compound 23] ?
Reply: 0.5 to 5 µM

Query: Fill in the blank: the reported IC50 of O=P(O)(O)CCC1CCN(c2ncnc3cc(O)ccc23)CC1 [Compound 5] is ____.
Reply: 0.05 to 0.5 µM

Query: Could you tell me which IC50 is on file for COc1cc2nccc(N3CCC(CCP(=O)(O)O)CC3)c2cc1OC [Compound 71] ?
Reply: 0.05 to 0.5 µM
